src = patent US20150274820A1

- TARGET_SYSTEM: recombinant rat VEGF164 (rat) (UniProt P16612)
- METHOD_SUMMARY: Biacore SPR, VEGF immobilized, pH 5
MEASURE_NAME: kon (M⁻¹ s⁻¹)

| BINDER | READING_UNIT | VALUE |
| --- | --- | --- |
| 567-max (scFv, VL and VH tied by name; also called Protein Nr; 874) scFv: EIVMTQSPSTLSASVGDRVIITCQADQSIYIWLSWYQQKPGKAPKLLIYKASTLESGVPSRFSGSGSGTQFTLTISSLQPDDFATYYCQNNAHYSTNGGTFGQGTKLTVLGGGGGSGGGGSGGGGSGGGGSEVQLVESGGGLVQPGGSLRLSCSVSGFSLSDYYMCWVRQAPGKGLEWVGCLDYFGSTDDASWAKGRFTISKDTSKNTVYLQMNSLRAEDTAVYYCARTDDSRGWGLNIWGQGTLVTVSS | M⁻¹ s⁻¹ | 1.36e+06 |
| 509-min (scFv, VL and VH tied by name; also called Protein Nr; 854) scFv: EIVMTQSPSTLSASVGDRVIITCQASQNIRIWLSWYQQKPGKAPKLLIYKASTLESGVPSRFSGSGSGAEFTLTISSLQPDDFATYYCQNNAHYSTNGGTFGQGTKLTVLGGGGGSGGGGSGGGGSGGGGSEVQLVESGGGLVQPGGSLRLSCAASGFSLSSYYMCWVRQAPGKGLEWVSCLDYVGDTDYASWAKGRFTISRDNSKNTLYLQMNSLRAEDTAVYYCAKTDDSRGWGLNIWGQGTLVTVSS | M⁻¹ s⁻¹ | 351000 |
| 578minmax FW1.4_DHP (scFv, tied by name only) scFv: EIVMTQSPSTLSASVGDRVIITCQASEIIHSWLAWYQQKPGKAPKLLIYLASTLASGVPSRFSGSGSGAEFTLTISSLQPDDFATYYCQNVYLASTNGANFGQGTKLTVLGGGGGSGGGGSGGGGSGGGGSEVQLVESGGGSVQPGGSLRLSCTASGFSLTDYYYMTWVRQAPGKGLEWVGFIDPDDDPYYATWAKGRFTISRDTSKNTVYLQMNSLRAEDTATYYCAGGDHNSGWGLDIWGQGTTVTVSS | M⁻¹ s⁻¹ | 800000 |
| 578-max (scFv, also called EP578max; #821) scFv: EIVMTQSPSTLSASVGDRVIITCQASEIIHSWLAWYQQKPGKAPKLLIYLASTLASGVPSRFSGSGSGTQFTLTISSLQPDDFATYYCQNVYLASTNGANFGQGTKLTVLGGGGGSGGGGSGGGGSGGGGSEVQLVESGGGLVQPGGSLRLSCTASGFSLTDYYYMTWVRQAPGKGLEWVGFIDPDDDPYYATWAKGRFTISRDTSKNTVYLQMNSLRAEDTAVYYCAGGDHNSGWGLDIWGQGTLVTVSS | M⁻¹ s⁻¹ | 883000 |
| 578min_max T84N_V89L_DHP (scFv) scFv: EIVMTQSPSTLSASVGDRVIITCQASEIIHSWLAWYQQKPGKAPKLLIYLASTLASGVPSRFSGSGSGAEFTLTISSLQPDDFATYYCQNVYLASTNGANFGQGTKLTVLGGGGGSGGGGSGGGGSGGGGSEVQLVESGGGSVQPGGSLRLSCTASGFSLTDYYYMTWVRQAPGKGLEWVGFIDPDDDPYYATWAKGRFTISRDNSKNTLYLQMNSLRAEDTATYYCAGGDHNSGWGLDIWGQGTTVTVSS | M⁻¹ s⁻¹ | 1.04e+06 |
